- Tested on: P388 leukemia ip, CD2F1 mice, survival T/C
- PROTOCOL: NCI In Vivo Anticancer Drug Screen. Data for tumor model P388 Leukemia (intraperitoneal) in CD2F1 (CDF1) mice
- SETUP CONDITIONS: endpoint: median survival time; dose: 100.0 mg/kg/injection; schedule: Q01DX009 (ip); vehicle: saline; higher = longer survival
Inconclusive results and toxic doses are left out.
VALUE TYPE: T/C

Tell us which T/C value is on record for `N#Cc1ccc(CC(O)(c2ccccc2)c2ccccc2)cc1` 101 % of control

Give the value of T/C reported for the following: `COC(=O)COC(=O)CCCCC(=O)OCC(=O)OC` 109 % of control

Give T/C for the following compound: CN1CCN(CN2C(=O)C3C4C=CC(C3C2=O)C2C(=O)N(CN3CCN(C)CC3)C(=O)C42)CC1 (stereo unspecified) 113 % of control

Entry `CNC1=CC(=S)NC(C)(C)C1` needs its T/C filled in; supply it. 92 % of control

For CC12NC(=O)NC1(C)NC(=O)N2 (stereo unspecified) , write its T/C. 87 % of control

Report T/C for `O=C(O)CS(=O)(=O)CCCCS(=O)(=O)CC(=O)O` 103 % of control

Determine from records and report T/C for `CC(C)=CCN1C(=O)c2ccccc2C1=O` 94 % of control

Look up T/C of CC1CN1C(=O)Nc1cccc(Cl)c1 (stereo unspecified) and report it. 102 % of control

Return T/C for the following compound: `Cc1cc[n+]([O-])cc1` 106 % of control

Look up T/C of O=C1OC2CSCC2O1 (stereo unspecified) and report it. 104 % of control

Identify measured T/C associated with `CCOP(=O)(Nc1cc(C)ccc1C)OCC` 104 % of control

Name the recorded T/C of the compound listed here: `Cc1cc(C)n(-c2ccc(Cl)nn2)n1` 95 % of control

Tell me its T/C given `C=CCN=C(N)S[As]1c2ccccc2Oc2ccccc21` as the entry. 98 % of control

Please give the documented T/C of `CCN(CC)CCOc1cccc2c1C(=O)c1ccccc1C2=O` 106 % of control

Give the reported T/C for this compound. `Cc1cc(OC(=O)Nc2cc([N+](=O)[O-])ccc2C)c(C)cc1I` 92 % of control

Respond only with T/C recorded for `NCCN(Cc1ccccc1)C1CC1` 91 % of control

Determine its reported T/C: `O=C(O)CN(CCN(CC(=O)O)CC(=O)O)CC(=O)O.[O]=[Mo]1[O][Mo](=[O])[O]1` 90 % of control

Look up T/C of `O=C(O)c1c[nH]c2cc(OCCc3ccc(F)cc3)ccc2c1=O` and report it. 101 % of control

Fill in T/C for record `Nc1ccc(N2CCSCC2)nc1` 101 % of control

Report T/C for O=c1[nH]c(=S)cnn1C1OC(CO)C(O)C1O (stereo unspecified) 94 % of control

Give the reported value of T/C for this record: `Cc1cccc(Nc2cc(Cl)nc(SCC(=O)O)n2)c1C` 98 % of control

Check the records and state T/C for `CC(/C=N\Nc1ccc(C(=O)O)cc1)=N/NC(=O)CC#N` 86 % of control

Name the recorded T/C of the item `CCN=c1cc2sc3cc(NCC)c(C)cc3nc-2cc1C` in your answer. 90 % of control

Give the reported T/C for this compound. `CCOC(=O)/C(=N\N=P(N(C)C)(N(C)C)N(C)C)[As](C)C` 99 % of control

Return the recorded T/C value; entry: `O=C(NCSC1=NCCS1)NCSC1=NCCS1` 91 % of control

Give the reported value of T/C for this record: `Oc1cncc2ncccc12` 100 % of control

// fetch T/C given entry `Cc1cc(Br)ccc1N=Cc1ccc(C=Nc2ccc(Br)cc2C)cc1` 86 % of control

Identify T/C associated with the compound `Oc1ccc(Cl)cc1C1CCCCC1` 100 % of control

For the compound `CCOC(=O)C(=O)Cc1ccc(C(=N)N)cc1` , give its reported T/C. 96 % of control

Report T/C for `Nn1cn[nH]c1=S` 98 % of control

Return T/C for the following compound: COc1ccc(C2CC(=O)NC(NC#N)=N2)c(O)c1 (stereo unspecified) 102 % of control

Please give measured T/C of the following entry: `CCOC(=O)NNc1cccc(Cl)c1` 100 % of control

Please supply the value of reported T/C for the item `Nc1cccc(C(=O)O)c1O` 106 % of control

Return T/C for the following compound: CCC(=O)NC(CC(C)C)C(=O)NC(CC(C)C)C(=O)NC(C=O)CCCN=C(N)N (stereo unspecified) (tested in a mixture with another compound) 110 % of control

Input CC1CCC(O)C23OC4C(OC(C)(C)C4C12C)C3=O (stereo unspecified) (tested in a mixture with another compound) , output reported T/C. 89 % of control

Supply T/C value. Item: COC1C=CC23c4cc5c(cc4C(O)OC2CN(C)C3C1)OCO5 (stereo unspecified) 94 % of control
